System: ACHN
Experiment: NCI tumour cell line growth inhibition, 48 h
Calls of active or inactive are those of the source. No stated cut-off is given here; in the data, active = GI50 up to about 1.1 µM and inactive = higher.
Labels: t = active, f = inactive

>  <Molecule>
O=C1C(Cl)=C(N2CCSCC2)C(=O)c2c(O)ccc(O)c21

>  <Category>
t

$$$$
>  <Molecule>
CCC1CCC2C3CC=C4CC(OC(C)=O)C(N)CC4(C)C3CCC12C (stereo not given)

>  <Category>
f

$$$$
>  <Molecule>
N#Cc1cccnc1Cl

>  <Category>
f

$$$$
>  <Molecule>
CC(C)C(=O)/C=C/c1ccc(Br)cc1

>  <Category>
f

$$$$
>  <Molecule>
O=C1CCC(=O)C(C(=O)CCC(=O)Nc2cccc(Cl)c2)C1 (stereo not given)

>  <Category>
f

$$$$
>  <Molecule>
COC(=O)c1ccc(NC(=O)c2cc(OC)c(OC)c(OC)c2)cc1

>  <Category>
f

$$$$
>  <Molecule>
S=C(/N=c1\sc(Nc2ccc(Cl)cc2)nc2sc3c(c12)CCN(N1CCc2c(sc4nc(Nc5ccc(Cl)cc5)s/c(=N\C(=S)Nc5ccc(Cl)cc5)c24)C1)C3)Nc1ccc(Cl)cc1

>  <Category>
f

$$$$
>  <Molecule>
Cc1ccccc1N1C(=O)C2C=CC(n3[nH]c(=O)n(Cc4ccccc4)c3=O)CC2C1=O (stereo not given)

>  <Category>
f

$$$$
>  <Molecule>
COc1ccc([C@@]23CCC(=O)C[C@@H]2N(C)CC3)cc1OC

>  <Category>
f

$$$$
>  <Molecule>
O=c1cc(N2CCOCC2)[nH]c(=O)n1-c1cccc(Cl)c1

>  <Category>
f

$$$$

---

Tested on: BT-549
Assay: NCI tumour cell line growth inhibition, 48 h
Activity calls are given as the source filed them. Rule as the data show it: active = GI50 up to about 1.1 µM and inactive = higher.
Each item that follows carries a reported GI50.

>  <Compound>
COc1ccc(-n2c(C)nc3ccc(NC4OCC(O)C(O)C4O)cc3c2=O)cc1 (stereo not given)

>  <Subject of test>
BT-549

>  <GI50>
74.5 µM (inactive)

$$$$
>  <Compound>
COc1ccc(C(OCC2OC(n3cc(C)c(=O)[nH]c3=O)CC2n2cc(Cn3cc(F)c(=O)[nH]c3=O)nn2)(c2ccccc2)c2ccccc2)cc1 (stereo not given)

>  <Subject of test>
BT-549

>  <GI50>
11.1 µM (inactive)

$$$$
>  <Compound>
CCCCCCCCCCCC[C@@H](O)[C@H]1CC[C@H]([C@H](O)CC[C@H](O)[C@@H]2CC[C@@H](CCCCCCCC3=C[C@H](C)OC3=O)O2)O1

>  <Subject of test>
BT-549

>  <GI50>
> 50 µM (inactive)

$$$$
>  <Compound>
Cc1cc(OP2(=O)NCc3ccncc3O2)ccc1Cl (stereo not given)

>  <Subject of test>
BT-549

>  <GI50>
> 100 µM (inactive)

$$$$
>  <Compound>
CCOC(=O)c1cn2c(n1)sc1cc([N+](=O)[O-])ccc12

>  <Subject of test>
BT-549

>  <GI50>
74.6 µM (inactive)

$$$$
>  <Compound>
COc1ccc(OC)c2c(Nc3ccc(S(=O)(=O)O)c4cc(S(=O)(=O)O)cc(S(=O)(=O)O)c34)cc(C)nc12

>  <Subject of test>
BT-549

>  <GI50>
> 100 µM (inactive)

$$$$
>  <Compound>
Cc1cc(-c2nc3ccccc3s2)ccc1NC(=O)[C@@H](N)CCCCN

>  <Subject of test>
BT-549

>  <GI50>
10.1 µM (inactive)

$$$$
>  <Compound>
CC(C)(CN1CCCCC1)C(=O)/C=C/c1c(Cl)cccc1Cl

>  <Subject of test>
BT-549

>  <GI50>
1.86 µM (inactive)

$$$$
>  <Compound>
COc1cc(-c2oc3c(OC)cc(OC)c(O)c3c(=O)c2OC)cc(OC)c1OC

>  <Subject of test>
BT-549

>  <GI50>
5.32 µM (inactive)

$$$$
>  <Compound>
COc1c2c(nc3ccccc13)-c1cc3c(c(=O)n1C2)COC(=O)C3(O)CC(=O)N1CCOCC1 (stereo not given)

>  <Subject of test>
BT-549

>  <GI50>
5.62 µM (inactive)

$$$$
>  <Compound>
O=CNCNCCO

>  <Subject of test>
BT-549

>  <GI50>
> 100 µM (inactive)

$$$$
>  <Compound>
COc1ccc(-c2csc3c2[N+]2(C)C=CC=C2C3N2CCCC2)cc1 (stereo not given)

>  <Subject of test>
BT-549

>  <GI50>
8.2 µM (inactive)

$$$$
>  <Compound>
COC(=O)Cc1c([C@H]2[C@H](CC(=O)OC)c3ccccc3N2C(=O)C(F)(F)F)[nH]c2ccccc12

>  <Subject of test>
BT-549

>  <GI50>
27.6 µM (inactive)

$$$$
>  <Compound>
O=C(N/N=C1\C(=O)Nc2ccc(Br)cc21)/C(O)=C/C(=O)c1ccc(Cl)cc1

>  <Subject of test>
BT-549

>  <GI50>
35.5 µM (inactive)

$$$$
>  <Compound>
O=P1(O)c2ccccc2CS(=O)(=O)Cc2ccccc21

>  <Subject of test>
BT-549

>  <GI50>
> 100 µM (inactive)

$$$$
>  <Compound>
CC[C@@]12C=CC(=S)N(CCSc3ccccc3)[C@@H]1c1c(n(S(=O)(=O)c3ccc(OC)cc3)c3ccccc13)CC2

>  <Subject of test>
BT-549

>  <GI50>
> 100 µM (inactive)

$$$$
>  <Compound>
CC(C)=CCN1c2ccc(Cl)cc2NC(=O)CC1C (stereo not given)

>  <Subject of test>
BT-549

>  <GI50>
21.8 µM (inactive)

$$$$
>  <Compound>
Cc1ccc(NC(=O)/C(=N\NC(N)=O)c2c(O)c3ccccc3[nH]c2=O)cc1

>  <Subject of test>
BT-549

>  <GI50>
> 100 µM (inactive)

$$$$
>  <Compound>
CS(=O)(=O)c1n[nH]c2nc(O)nc(O)c12

>  <Subject of test>
BT-549

>  <GI50>
> 10 µM (inactive)

$$$$
>  <Compound>
O=c1[nH]nc(-c2ccc([N+](=O)[O-])cc2)n1/N=C/c1ccc([N+](=O)[O-])cc1

>  <Subject of test>
BT-549

>  <GI50>
> 100 µM (inactive)

$$$$

---

System: KM12
Test: NCI tumour cell line growth inhibition, 48 h
Calls of active or inactive are those of the source. No stated cut-off is given here; in the data, active = GI50 up to about 1.1 µM and inactive = higher.
Parameter: GI50

>  <Compound>
CCCCCCCC(=O)OCC1OC(n2cc(F)c(=O)[nH]c2=O)C(NC(=O)OCc2ccccc2)C(OC(=O)CCCCCCC)C1O (stereo not given)

>  <Subject of test>
KM12

>  <Observed value>
35.3 µM (inactive)

$$$$
>  <Compound>
O=C(O)CC(Cc1ccccc1Cl)C(=O)O (stereo not given)

>  <Subject of test>
KM12

>  <Observed value>
> 100 µM (inactive)

$$$$
>  <Compound>
CC(C)COC(=O)c1ccc(/N=C\c2ccc(/C=N/c3ccc(C(=O)OCC(C)C)cc3)cc2)cc1

>  <Subject of test>
KM12

>  <Observed value>
> 100 µM (inactive)

$$$$
>  <Compound>
NCCNC(=O)c1cccc2cc3ccccc3nc12

>  <Subject of test>
KM12

>  <Observed value>
4.03 µM (inactive)

$$$$
>  <Compound>
COC1C(OC(=O)/C=C/C=C/C=C/C=C\C(=O)O)CCC2(CO2)C1C1(C)OC1CC=C(C)C (stereo not given)

>  <Subject of test>
KM12

>  <Observed value>
> 100 µM (inactive)

$$$$
>  <Compound>
O=c1c2ccccc2nc(-c2ccc(Br)cc2)n1NC1OC(CO)C(O)C(O)C1O (stereo not given)

>  <Subject of test>
KM12

>  <Observed value>
> 100 µM (inactive)

$$$$
>  <Compound>
COC(=O)/C(=N/Nc1cccc(Cl)c1)C(C(=O)C(=O)Nc1cccc(Cl)c1C)c1nc2ccccc2nc1C (stereo not given)

>  <Subject of test>
KM12

>  <Observed value>
80.7 µM (inactive)

$$$$
>  <Compound>
N#Cc1sc2c(c1OC(=O)c1ccc(Cl)cc1)c(=O)n(-c1ccccc1)c(=S)n2-c1ccccc1

>  <Subject of test>
KM12

>  <Observed value>
14.9 µM (inactive)

$$$$
>  <Compound>
CCN(CCO)C(=O)C1(c2ccccc2)CCCCC1

>  <Subject of test>
KM12

>  <Observed value>
> 10 µM (inactive)

$$$$
>  <Compound>
CS(=O)(=O)OCC1CN(S(C)(=O)=O)c2cc(O)ccc21 (stereo not given)

>  <Subject of test>
KM12

>  <Observed value>
2.96 µM (inactive)

$$$$

---

GI50 values, listed per item
Test system: Malme-3M
Test: NCI tumour cell line growth inhibition, 48 h
Activity calls are given as the source filed them. Rule as the data show it: active = GI50 up to about 1.1 µM and inactive = higher.

>  <Compound>
O=S(=O)([N-]c1nc2ccccc2nc1-[n+]1ccccc1)c1ccccc1

>  <GI50>
> 100 µM (inactive)

$$$$
>  <Compound>
CCCOP1(=O)C=C(O)C(Cl)=C(C)C1 (stereo not drawn)

>  <GI50>
> 100 µM (inactive)

$$$$
>  <Compound>
O=C1NC(=S)NC(=O)C1C(c1ccccc1[N+](=O)[O-])C1C(=O)NC(=S)NC1=O.c1ccncc1

>  <GI50>
> 100 µM (inactive)

$$$$
>  <Compound>
NC(Cc1ccnnc1)C(=O)O (stereo not drawn)

>  <GI50>
> 100 µM (inactive)

$$$$
>  <Compound>
COC(=O)/C(=N/Nc1cccc(Cl)c1)C(C(=O)C(=O)Nc1cccc(Cl)c1C)c1nc2ccccc2nc1C (stereo not drawn)

>  <GI50>
55 µM (inactive)

$$$$
>  <Compound>
CC1=NC(=O)C(C)(c2ccccc2)N1CCc1ccccc1 (stereo not drawn)

>  <GI50>
> 100 µM (inactive)

$$$$
>  <Compound>
CC(C)=CCN1c2ccc(Cl)cc2NC(=O)CC1C (stereo not drawn)

>  <GI50>
20.3 µM (inactive)

$$$$
>  <Compound>
O=c1[nH]nc(-c2ccc([N+](=O)[O-])cc2)n1/N=C/c1ccc([N+](=O)[O-])cc1

>  <GI50>
> 100 µM (inactive)

$$$$
>  <Compound>
COc1cc(/C=C(\NC(=O)c2ccccc2)c2nc3cncnc3[nH]2)cc(OC)c1OC

>  <GI50>
> 100 µM (inactive)

$$$$
>  <Compound>
COc1ccc(C(=O)/C=C/c2cccnc2)cc1OC

>  <GI50>
15.2 µM (inactive)

$$$$
>  <Compound>
O=C1Cc2ccccc2N1/N=C\c1ccc(O)cc1

>  <GI50>
> 100 µM (inactive)

$$$$
>  <Compound>
COCC#C[C@@]1(O)CCCCC1CC(OC)OC (stereo partly drawn)

>  <GI50>
64.9 µM (inactive)

$$$$
>  <Compound>
c1ccc2c(c1)nnn2CNc1ccc(N2CCOCC2)cc1

>  <GI50>
> 100 µM (inactive)

$$$$
>  <Compound>
CCOC(=O)N/N=C(/N)c1cccc(Br)c1

>  <GI50>
> 100 µM (inactive)

$$$$
>  <Compound>
CCN(CCO)C(=O)C1(c2ccccc2)CCCCC1

>  <GI50>
> 10 µM (inactive)

$$$$
>  <Compound>
C=C1CCC2[C@@H](CCC3[C@]2(C)CCC[C@]3(C)C(=O)OC)C1CCO (stereo partly drawn)

>  <GI50>
14.9 µM (inactive)

$$$$
>  <Compound>
S=C(Cc1ccc2c(c1)Sc1ccccc1O2)N1CCOCC1

>  <GI50>
23.8 µM (inactive)

$$$$
>  <Compound>
CC1=NN2C(=N)/C(=C/c3ccc(F)cc3)C(=O)N=C2S1

>  <GI50>
> 100 µM (inactive)

$$$$
>  <Compound>
O/N=C\C(=N/O)Nc1ccc(Cc2ccc(NC(/C=N\O)=N/O)cc2)cc1

>  <GI50>
24.7 µM (inactive)

$$$$
>  <Compound>
CCCCc1c2cnccc2c(CCCC)c2c1[nH]c1ccccc12

>  <GI50>
11.9 µM (inactive)

$$$$
>  <Compound>
CCOC(=O)c1cccnc1C(OC(C)=O)OC(C)=O

>  <GI50>
> 100 µM (inactive)

$$$$
>  <Compound>
N#CC1(c2nc3ccccc3o2)C(=O)C(=O)N(C2C3CC4CC(C3)CC2C4)C(=O)C1=O (stereo not drawn)

>  <GI50>
> 100 µM (inactive)

$$$$
>  <Compound>
O=C(N/N=C1\C(=O)Nc2ccc(Br)cc21)/C(O)=C/C(=O)c1ccc(Cl)cc1

>  <GI50>
> 100 µM (inactive)

$$$$

Taken from ChEMBL document CHEMBL1201862.
